What CC50 was measured for each of the following?
# MEASUREMENT DESCRIPTION: Cytotoxicity against human HuhET cells by [3H]thymidine incorporation assay
# Type: cell-based

The reported value for COC(=O)N[C@H](C(=O)N1C[C@@H](C)C[C@H]1c1nc2sc(C#CC#Cc3cc4[nH]c([C@@H]5C[C@H](C)CN5C(=O)[C@@H](NC(=O)OC)C(C)C)nc4s3)cc2[nH]1)C(C)C in terms of CC50 is > 20 µM

The reported value for COC(=O)N[C@H](C(=O)N1CCC[C@H]1c1nc2sc(C#CC#Cc3cc4[nH]c([C@@H]5CCCN5C(=O)[C@@H](NC(=O)OC)C(C)C)nc4s3)cc2[nH]1)C(C)C in terms of CC50 is 6.1 µM

The reported value for COC(=O)N[C@H](C(=O)N1C[C@@H](C)C[C@H]1c1nc2sc(-c3ccc(-c4ccc(-c5cc6[nH]c([C@@H]7C[C@H](C)CN7C(=O)[C@@H](NC(=O)OC)C(C)C)nc6s5)cc4)cc3)cc2[nH]1)C(C)C in terms of CC50 is > 20 µM

* * *

# MEASUREMENT DESCRIPTION: Half life in iv dosed Sprague-Dawley rat
# Assay type: ADME, organism-based
# EXPERIMENTAL CONDITIONS: in vivo
MEASURED ATTRIBUTE: half-life (h)
Kindly provide the numeric value in h only, without the unit symbol.

The reported value for COC(=O)N[C@H](C(=O)N1CCC[C@H]1c1nc2sc(C#CC#Cc3cc4[nH]c([C@@H]5CCCN5C(=O)[C@@H](NC(=O)OC)C(C)C)nc4s3)cc2[nH]1)C(C)C in terms of half-life is 5.2

The reported value for COC(=O)N[C@H](C(=O)N1C[C@@H](C)C[C@H]1c1nc2sc(-c3ccc(-c4ccc(-c5cc6[nH]c([C@@H]7C[C@H](C)CN7C(=O)[C@@H](NC(=O)OC)C(C)C)nc6s5)cc4)cc3)cc2[nH]1)C(C)C in terms of half-life is 4.5
